Hello, the source for this data is patent EP0889884B1, in case you need it.

Reported IC50 values are given for each entry in this list.
assay: Inhibition of cross-linking of N-acetyl glycyl-lysine methyl ester in the presence of ribose (fluorescence); format: biochemical; conditions: 0.5 M sodium phosphate buffer pH 7.4, 37° C, 16-24 hours, fluorescence 350/400 nm
Where a name gives a salt, the structure may show the parent alone.
Numeric only. Scale: µM

{"columns": ["molecule", "IC50 / µM"],
 "data": [
  ["Nc1nnc(Cc2ccccc2[N+](=O)[O-])c(=O)n1N [hydrochloride]", 900],
  ["NNC(=O)c1nnc(N)n(N)c1=O", 730],
  ["CC(C)Cc1nnc(N)n(N)c1=O", 1160],
  ["CCOC(=O)C(C)c1nnc(N)n(N)c1=O (stereo not drawn) [hydrochloride]", 1650],
  ["Nc1nnc(Cc2ccccc2)c(=O)n1N [hydrochloride]", 1200]
]}

Enquiry: Could you share which IC50 value was measured for `CC(C)(CO)c1nnc(N)n(N)c1=O` ?
Return: 970

Enquiry: # query: IC50 of entry CCOC(=O)c1nnc(N)n(N)c1=O [hydrochloride]
Return: 720

Enquiry: Any idea what its IC50 is? The molecule is Nc1nnc(Cc2ccc(O)cc2)c(=O)n1N [hydrochloride]
Return: 4400

Enquiry: Entry Nc1nnc(CCc2ccccc2)c(=O)n1N [hydrochloride] has what IC50?
Return: 2700

###

Listed next: entries and their corresponding IC50.
experiment: Inhibition of cross-linking of N-acetyl glycyl-lysine methyl ester in the presence of ribose (fluorescence); type: biochemical; settings: 0.5 M sodium phosphate buffer pH 7.4, 37° C, 16-24 hours, fluorescence 350/400 nm
Structures can show the parent of a compound that is named as a salt.
Report the figure in µM without appending any unit label.

{"columns": ["compound", "unit.symbol", "IC50"],
 "data": [
  ["Cc1nnc(N)n(N)c1=O", "µM", 1230],
  ["CCc1nnc(N)n(N)c1=O [hydrochloride]", "µM", 2000],
  ["Nc1nnc(C2CC2)c(=O)n1N", "µM", 2000]
]}

Enquiry: May I ask what IC50 has been recorded for CCC(C)c1nnc(N)n(N)c1=O (stereo not drawn) ?
Return: 1400

Enquiry: Please report the recorded IC50 for NNC(=O)CCc1nnc(N)n(N)c1=O [hydrochloride] .
Return: 1500

Enquiry: Looking for the measured IC50 of CCCc1nnc(N)n(N)c1=O [hydrochloride] , can you help?
Return: 1300

Enquiry: Tell me the measured IC50 of CCCCCCC(C(=O)OCC)c1nnc(N)n(N)c1=O (stereo not drawn) [hydrochloride] , please.
Return: 480

Enquiry: Report IC50 for CC(C)c1nnc(N)n(N)c1=O [hydrochloride] please.
Return: 1050

Enquiry: Given the compound `Nc1nnc(CCC(=O)O)c(=O)n1N` , what is its reported IC50?
Return: 1970

Enquiry: Fill in: IC50 of CCOC(=O)CCc1nnc(N)n(N)c1=O [hydrochloride] is ___
Return: 840

Enquiry: Can you look up the measured IC50 of COc1ccc(C=Cc2nnc(N)n(N)c2=O)cc1OC [hydrochloride] for me?
Return: 350

###

test: Inhibition of cross-linking of N-acetyl glycyl-lysine methyl ester in the presence of ribose (fluorescence); type: biochemical; conditions: 0.5 M sodium phosphate buffer pH 7.4, 37° C, 16-24 hours, fluorescence 350/400 nm
Counter-ions that a name gives are not always drawn.
assay.endpoint: IC50

Some solved entries appear below for comparison.
{"columns": ["compound", "assay.endpoint", "meas.value"],
 "data": [
  ["COc1cccc(C(=O)Cc2nnc(N)n(N)c2=O)c1 [hydrochloride]", "IC50", "> 10 mM"],
  ["Cc1nnc(NN)n(N)c1=O [hydrochloride]", "IC50", "< 3 mM"]
]}

Here's the next entry for you.
Enquiry: Any idea what its IC50 is? The compound is NNc1nncc(=O)n1N [hydrochloride]
Return: > 10 mM
